Reference source for all entries: PubChem BioAssay (NCATS)

system: Zika virus NS2B-NS3 protease (linked construct); experiment: Primary screen NINDS Rhodamine qHTS for Zika virus inhibitors (AID 1347160); conditions: purified NS2B-NS3 protease, Rhodamine110 substrate fluorescence; series mostly up to 57.1 µM; further: nearly all actives have a fitted effect of over 55% in size
Records with an inconclusive call do not appear. The source made the active and inactive calls. The call rests on the fitted dose curve; in most records, active means well fitted inhibition curve with a large enough effect; inconclusive means small, poorly fitted or top-dose-only effect; inactive means no such curve, though single readings can be large or run the other way.
The categories you may choose from are active, inactive

Query: recorded result category for `COc1ccc([C@H]2Cc3cccc(O)c3C(=O)O2)cc1OC` in this test inactive

Query: recorded result category for Cc1ccc(N2CCN(CCC3NC(=O)c4ccccc43)CC2)cc1C (stereo not drawn) in this test inactive

Query: recorded result category for `Cc1cc(C(=O)Cn2cc(C#N)ccc2=O)c(C)n1Cc1ccccc1` in this test inactive

Query: recorded result category for CCOC(=O)N1CCC(CN(Cc2ccc(Cl)cc2)Cc2ccc([N+](=O)[O-])s2)C1 (stereo not drawn) in this test inactive

Query: recorded result category for `Nc1nc(OCc2cc(Br)cs2)c2[nH]cnc2n1` in this test inactive

Query: recorded result category for C=CC(=O)N1CCCC(n2nc(-c3ccc(Oc4ccccc4)cc3)c3c(N)ncnc32)C1 (stereo not drawn) in this test inactive

Query: recorded result category for `CC(=O)O[C@H]1[C@@]2(O)C[C@H](C)[C@H](OC(=O)c3ccccc3)[C@@H]2[C@@H](OC(=O)CO)[C@]2(OC(C)=O)C[C@H]3C(=O)C(C)(C)C[C@@H]3[C@@]1(C)[C@H]2OC(C)=O` in this test inactive

Query: recorded result category for `C=C(C)C(=O)O[C@H]1[C@H]2C(=C)C(=O)O[C@@H]2C[C@@H](C)[C@@H]2O[C@@H]2C(=O)[C@](C)(O)[C@@H]1OC(=O)C(=C)C` in this test inactive

Query: recorded result category for O=C(NCCCc1ccccc1)C1CCC(CNS(=O)(=O)c2cccc3nsnc23)CC1 (stereo not drawn) in this test inactive

Query: recorded result category for `CCN(Cc1ccccc1)C(=O)Cn1c(=O)n(C)c2cnc(-c3ccccc3)nc21` in this test inactive

Query: recorded result category for `CCn1nc(C2CCN(C(=O)CCO)CC2)nc1-c1cnc(N)c(-c2nnc(C(C)(C)C)o2)n1` in this test inactive

Query: recorded result category for CC(C)CC(=O)c1c(O)cc2c(c1O)C(CC(C)C)C1=C(O2)C(C)(C)C(=O)C(C)(C)C1=O (stereo not drawn) in this test active

Query: recorded result category for CC(C)(O)C1CC(=O)C2(C)C(CCC3(C)C(c4ccoc4)OC(=O)C4OC432)C12CCC(=O)OC2 (stereo not drawn) in this test inactive

Query: recorded result category for CNCCC(c1cccs1)c1ccc(O)c2ccccc12 (stereo not drawn) in this test inactive

Query: recorded result category for `O=C(/C=C/c1ccccc1O)O[C@@H]1O[C@H](CO)[C@@H](O)[C@H](O)[C@H]1O` in this test inactive

Query: recorded result category for `CC(C)(C)c1ccc(-c2nc3c(N4CCN(Cc5ccc6nccnc6c5)CC4)cccc3[nH]2)cc1` in this test inactive

Query: recorded result category for `N#Cc1cnc2c(Cl)cc(NCc3cn(CCN4CCCCCC4)nn3)cc2c1Nc1ccc(F)c(Cl)c1` in this test inactive

Query: recorded result category for `CCCOc1ccc(CCc2nc3cc(-c4c(C)noc4C)ccc3n2CCN2CCOCC2)cc1` in this test inactive
